test system: Mouse neuroblastoma cells NS-20Y; experiment: Neurite appearance in mouse neuroblastoma NS-20Y cells (Table 8); assay type: cell-based; conditions: 24 hour; 0.5 mM
outcome measure: The number of cells in which neurites appeared/Total number of cells

Task: Returns the measured The number of cells in which neurites appeared/Total number of cells for the input compound. Input: CN(C(=O)c1ccc(C#N)cc1)c1ccnc(N2CCC(c3ccccc3)CC2)n1
Output: 3/50

Task: Okay, and CN(C)c1nccc(N2CCCC2=O)n1 ?
Output: 6/50

Task: Repeat with CC(=O)N(C)c1ccnc(N2CCSCC2)n1
Output: 3/50

Task: Consider next the compound CCCCN(CCCC)c1nccc(N2CCCC2=O)n1 in the same way.
Output: 4/50

Task: Can you handle O=C1CCCN1c1ccnc(N2CCOCC2)n1 next?
Output: 15/50

Task: Repeat with CC1CCN(c2nccc(N3CCCC3=O)n2)CC1
Output: 16/50

Task: Moving on to CN1CCN(c2nccc(N3CCCC3=O)n2)CC1
Output: 10/50

Task: Next record, please: O=C1CCCN1c1ccnc(N2CCCCC2)n1
Output: 18/50

Task: Now the same for O=C1CCCN1c1ccnc(N2CCN(c3ccccc3)CC2)n1
Output: 9/50

Task: Same thing, different compound: CN(C(=O)c1ccc(C=O)cc1)c1ccnc(N2CCCCC2)n1
Output: 16/50

Task: Same question for O=C1CCCN1c1ccnc(N2CCNCC2)n1 please.
Output: 14/50

====

test system: Mouse neuroblastoma cells NS-20Y; assay: Neurite appearance in mouse neuroblastoma NS-20Y cells (Table 8); assay type: cell-based; conditions: 24 hour; 0.2 mM;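 also: cells grown in polyornithine-coated dishes, with timing counted from the start of culture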
outcome measure: The number of cells in which neurites appeared/Total number of cells

Task: Can you look up the measured The number of cells in which neurites appeared/Total number of cells of COC(=O)c1ccc(C(=O)N(C)c2ccnc(N3CCC(c4ccccc4)CC3)n2)cc1 for me?
Output: 3/50

Task: Also CC1CCN(c2nccc(N3CCCC3=O)n2)CC1 ?
Output: 12/50

Task: Try this molecule too: O=C1CCCN1c1ccnc(N2CCNCC2)n1
Output: 10/50

Task: Likewise for O=C1CCCN1c1ccnc(N2CCN(c3ccccc3)CC2)n1 ?
Output: 6/50

Task: Try the molecule CC(=O)c1ccc(C(=O)N(C)c2ccnc(N3CCCCC3)n2)cc1
Output: 2/50

Task: Now the same for CCC1CCN(c2nccc(N3CCCC3=O)n2)CC1
Output: 13/50

Task: Would you kindly repeat that for CCOC(=O)C1CCN(c2nccc(N3CCCC3=O)n2)CC1 ?
Output: 5/50

Task: Note, next up: CN(C(=O)c1ccc(C=O)cc1)c1ccnc(N2CCCCC2)n1
Output: 8/50

Task: Next entry: CC(=O)c1ccc(C(=O)N(C)c2ccnc(N3CCC(c4ccccc4)CC3)n2)cc1
Output: 4/50

Task: Also check CC(=O)N(C)c1ccnc(N2CCSCC2)n1
Output: 3/50

Task: Same question for O=C(c1ccccc1)N1CCN(c2ccnc(N3CCC(c4ccccc4)CC3)n2)CC1 please.
Output: 3/50
